- Assay Target: Anti-CD28 scFv (VH-linker 1-VL)
- Sequence (scFv, as listed by the source): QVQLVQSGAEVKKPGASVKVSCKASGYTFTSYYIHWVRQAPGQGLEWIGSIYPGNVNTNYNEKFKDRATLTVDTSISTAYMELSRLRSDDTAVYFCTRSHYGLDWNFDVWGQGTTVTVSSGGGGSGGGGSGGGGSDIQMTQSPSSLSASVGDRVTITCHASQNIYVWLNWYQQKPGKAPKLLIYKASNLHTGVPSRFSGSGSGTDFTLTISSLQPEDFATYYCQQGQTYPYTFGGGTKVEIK
- Assay Method Text: phage ELISA: biotinylated anti-CD28 scFv on neutravidin plate, clonal phage supernatant, anti-M13-HRP; wells pre-incubated with soluble CD28 (competitor);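 also: wells pretreated with soluble CD28 protein in blocking buffer before phage addition, no wash in between, reference wells got blocking buffer only, bound phage detected after washing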
List of Phage binding ELISA CD28 scFv signal in presence of CD28 values.
Keep the answer to the number alone.

Answered cases to consult:
MFLCPSAMWNRCFY (Clonal phage from the Peptide-9 library) [Phage-426]
0.114
MDWCPVDRWADCFN (Clonal phage from the Peptide-9 library) [Phage-437]
0.315
EDWCPTDVWPYCFS (Clonal phage from the Peptide-9 library) [Phage-450]
0.157
MDWCPRDRWDDCFN (Clonal phage from the Peptide-9 library) [Phage-446]
0.077
MAWCPWAQFDECLA (Clonal phage from the Peptide-9 library) [Phage-433]
0.078

Exercise: Return reported Phage binding ELISA CD28 scFv signal in presence of CD28. Input binder: MNWCPSTMWNRCLT (Clonal phage from the Peptide-9 library) [Phage-428]
Key: 0.07

Exercise: Return reported Phage binding ELISA CD28 scFv signal in presence of CD28. Input binder: INLCPTPMWNRCWL (Clonal phage from the Peptide-9 library) [Phage-423]
Key: 0.101

Exercise: Return reported Phage binding ELISA CD28 scFv signal in presence of CD28. Input binder: MDWCPSDYWYVCFA (Clonal phage from the Peptide-9 library) [Phage-453]
Key: 0.08
